- System Under Test: wild-type Epidermal Growth Factor Receptor (EGFR) (Homo sapiens (Human), UniProt P00533)
- Sequence (P00533 669-1210): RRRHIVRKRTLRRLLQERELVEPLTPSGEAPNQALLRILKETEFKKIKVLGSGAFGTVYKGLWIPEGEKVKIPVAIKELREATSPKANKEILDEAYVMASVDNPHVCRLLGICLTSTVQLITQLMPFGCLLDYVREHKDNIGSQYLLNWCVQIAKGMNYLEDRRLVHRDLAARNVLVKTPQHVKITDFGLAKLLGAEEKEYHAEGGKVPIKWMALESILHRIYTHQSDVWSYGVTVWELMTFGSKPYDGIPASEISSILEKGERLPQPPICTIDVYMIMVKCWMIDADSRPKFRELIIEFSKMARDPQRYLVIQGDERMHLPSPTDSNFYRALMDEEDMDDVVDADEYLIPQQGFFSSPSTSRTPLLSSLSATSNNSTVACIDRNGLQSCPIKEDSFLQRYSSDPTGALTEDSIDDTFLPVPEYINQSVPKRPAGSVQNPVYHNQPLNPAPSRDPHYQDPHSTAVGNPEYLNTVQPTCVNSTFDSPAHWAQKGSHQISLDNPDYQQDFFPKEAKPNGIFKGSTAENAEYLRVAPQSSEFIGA
- Protocol Description: WT-EGFR Kinase Assay (TR-FRET, 2 mM ATP)
- Type: biochemical
- Experimental Context: read-out: EGFR Wildtyp 2 mM ATP IC50 [mol/l] (median), median or individual measurements
pIC50: −log10 of the molar value.
Endpoint: pIC50

CC(C(=O)Nc1cc(-c2[nH]c3c(c2-c2ccccc2)C(=O)NCC3(C)C)ccn1)c1ccc(F)cc1 (single isomer, unassigned) = < 4.70
CC(C(=O)Nc1cc(-c2[nH]c3c(c2-c2ccccc2)C(=O)N(C)CC3CC2CC2)ccn1)c1ccc(F)cc1 (stereo not shown) = < 4.70
CN1CCc2[nH]c(-c3ccnc(NC(=O)Cc4ccc(C(=O)N5CCNCC5)cc4)c3)c(-c3ccc(F)cc3)c2C1=O = 5.44
CC(C(=O)Nc1cc(-c2[nH]c3ccn(C)c(=O)c3c2-c2ccco2)ccn1)c1ccc(F)cc1 (racemic) = < 5.24
O=C(Nc1cc(-c2[nH]c3ccn(C4CC4)c(=O)c3c2-c2ccccc2)ccn1)C(CC(F)F)c1ccc(F)cc1 (single isomer, unassigned) = < 4.70
CN1CCc2[nH]c(-c3ccnc(NC(=O)C(CC(F)F)c4ccc(F)cc4)c3)c(-c3cccnc3)c2C1=O (single isomer, unassigned) = < 4.70

// Input: CC1CN(C)C(=O)c2c1[nH]c(-c1ccnc(NC(=O)C(C)c3ccc(F)cc3)c1)c2-c1ccc(F)cc1 (stereo not shown) . Output its pIC50 only.
< 4.70

Write down pIC50 measured for item CN1CCc2[nH]c(-c3ccnc(NC(=O)C(CC(F)F)c4ccc(F)cc4)c3)c(-c3ccc(F)cc3F)c2C1=O (single isomer, unassigned)
< 4.70

Please supply the value of reported pIC50 for the item O=C(Cc1ccc(F)cc1)Nc1cc(-c2[nH]c3c(c2-c2ccccc2)C(=O)NCC3)ccn1
< 4.70

Using known records, supply pIC50 for CC(C(=O)Nc1cc(-c2[nH]c3c(c2-c2ccc(F)cc2)C(=O)NC(C)(C)C3)ccn1)c1ccc(F)cc1 (single isomer, unassigned)
< 4.70

Supply pIC50 value. Item: CN1CC(CC(F)(F)F)c2[nH]c(-c3ccnc(NC(=O)C(CC(F)F)c4ccc(F)cc4)c3)c(-c3ccccc3)c2C1=O (stereo not shown)
< 4.70

For the compound Cc1cccc(-c2c(-c3ccnc(NC(=O)Cc4ccc(F)cc4)c3)[nH]c3c2C(=O)NC(C)(C)C3)c1 , give its reported pIC50.
< 4.70

Identify the reported pIC50 for the following entry. CC(C(=O)Nc1cc(-c2[nH]c3ccn(C)c(=O)c3c2-c2ccc(Cl)s2)ccn1)c1ccc(F)cc1 (racemic)
< 5.24
